- system.under.test: human NaV 1.8 (Homo sapiens)
- Sequence (Q9Y5Y9 whole entry, looked up): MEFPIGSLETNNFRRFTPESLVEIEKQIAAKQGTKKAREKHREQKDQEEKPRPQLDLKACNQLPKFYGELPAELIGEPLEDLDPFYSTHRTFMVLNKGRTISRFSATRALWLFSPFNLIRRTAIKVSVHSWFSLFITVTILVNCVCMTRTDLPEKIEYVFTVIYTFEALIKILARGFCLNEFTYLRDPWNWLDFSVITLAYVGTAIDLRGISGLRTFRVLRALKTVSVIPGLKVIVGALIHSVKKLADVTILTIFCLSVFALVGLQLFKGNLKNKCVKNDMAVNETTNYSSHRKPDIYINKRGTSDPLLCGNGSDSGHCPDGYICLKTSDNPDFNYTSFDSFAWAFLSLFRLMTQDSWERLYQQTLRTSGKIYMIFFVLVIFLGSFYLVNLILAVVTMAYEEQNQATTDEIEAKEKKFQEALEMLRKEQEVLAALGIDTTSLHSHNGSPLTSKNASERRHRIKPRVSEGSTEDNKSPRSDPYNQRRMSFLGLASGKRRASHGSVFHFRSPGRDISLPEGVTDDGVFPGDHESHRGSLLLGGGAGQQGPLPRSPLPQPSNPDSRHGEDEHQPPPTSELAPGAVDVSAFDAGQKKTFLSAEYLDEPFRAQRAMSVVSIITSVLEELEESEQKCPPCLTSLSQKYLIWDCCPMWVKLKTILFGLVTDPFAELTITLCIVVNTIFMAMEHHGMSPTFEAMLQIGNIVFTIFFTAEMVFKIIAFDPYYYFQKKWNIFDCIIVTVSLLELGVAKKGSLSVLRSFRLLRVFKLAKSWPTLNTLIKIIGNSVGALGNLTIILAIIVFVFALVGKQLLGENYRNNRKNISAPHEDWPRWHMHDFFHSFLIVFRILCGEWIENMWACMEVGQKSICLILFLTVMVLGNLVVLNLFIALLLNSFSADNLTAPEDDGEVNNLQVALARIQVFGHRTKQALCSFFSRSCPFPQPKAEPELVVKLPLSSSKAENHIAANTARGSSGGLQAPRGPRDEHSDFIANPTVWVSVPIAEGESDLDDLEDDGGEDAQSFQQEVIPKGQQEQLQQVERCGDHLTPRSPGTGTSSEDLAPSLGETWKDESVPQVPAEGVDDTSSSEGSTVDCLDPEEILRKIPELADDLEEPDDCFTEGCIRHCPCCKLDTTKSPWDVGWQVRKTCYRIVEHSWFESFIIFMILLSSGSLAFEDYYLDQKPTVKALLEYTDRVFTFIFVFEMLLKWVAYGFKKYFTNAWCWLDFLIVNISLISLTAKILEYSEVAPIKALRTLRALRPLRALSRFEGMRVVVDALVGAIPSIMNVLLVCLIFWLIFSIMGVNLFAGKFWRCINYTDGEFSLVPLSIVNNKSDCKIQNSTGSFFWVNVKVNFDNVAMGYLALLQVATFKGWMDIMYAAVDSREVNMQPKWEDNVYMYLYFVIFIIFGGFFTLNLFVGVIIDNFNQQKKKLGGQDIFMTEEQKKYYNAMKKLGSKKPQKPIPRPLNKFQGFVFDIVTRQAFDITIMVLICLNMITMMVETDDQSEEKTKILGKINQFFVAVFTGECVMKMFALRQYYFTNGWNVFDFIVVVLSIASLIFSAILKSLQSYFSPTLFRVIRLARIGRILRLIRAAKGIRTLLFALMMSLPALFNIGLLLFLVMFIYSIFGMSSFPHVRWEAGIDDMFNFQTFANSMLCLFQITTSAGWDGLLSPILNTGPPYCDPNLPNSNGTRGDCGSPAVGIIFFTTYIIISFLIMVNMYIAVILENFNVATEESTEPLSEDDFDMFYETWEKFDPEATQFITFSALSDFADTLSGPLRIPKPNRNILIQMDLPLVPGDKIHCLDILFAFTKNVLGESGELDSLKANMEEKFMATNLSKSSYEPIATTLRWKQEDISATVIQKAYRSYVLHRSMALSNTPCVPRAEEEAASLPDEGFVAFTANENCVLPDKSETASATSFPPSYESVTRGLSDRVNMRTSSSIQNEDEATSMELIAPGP
- experiment.description: E-VIPR assay for detecting and measuring NaV inhibition properties
- Format: cell-based
- details: E-VIPR assay conducted in the presence of human serum; HEK cells expressing truncated human NaV 1.8; read-out: IC50
For each of the molecules below, state its pIC50.
Worth noting: pIC50 values are minus log10 of concentrations stated in mol/L.

Prompt line: Tell me its pIC50 given CCOc1ccc(Oc2ccc(C(F)(F)F)c(F)c2C(=O)Nc2ccnc(C(N)=O)c2)c(F)c1F as the entry.
Response line: 7.24

Prompt line: Tell me its pIC50 given COc1cc(OC(F)(F)F)ccc1Oc1cc(C2CCC(OC)CC2)ccc1C(=O)Nc1ccnc(C(N)=O)c1 (single isomer, unassigned) [1032 (first diastereomer)] as the entry.
Response line: 6.28

Prompt line: Tell me its pIC50 given COc1cc(OC(F)(F)F)ccc1Oc1cc(OC)c(C(F)(F)F)c(C)c1C(=O)Nc1ccnc(C(N)=O)c1 as the entry.
Response line: 8.38
